experiment: water solubility of free base and salts of compound 3; format: physicochemical; conditions: thermodynamic from solid; in water

| compound | solubility |
| --- | --- |
| COc1ccc(-c2ccnc(Nc3ccc(S(=O)(=O)NCCCN(C)C)cc3)n2)cc1F.O=C(O)CCC(=O)O [mono-succinate] | 1100 µg/mL |
